Target: KRAS (aa 1-169) G12C, C51S, C80L, C118S (Homo sapiens (Human), UniProt P01116, C118S/C51S/C80L/G12C)
Sequence (P01116 other isoform, or with tags, fused parts or gaps G12C/C51S/C80L/C118S): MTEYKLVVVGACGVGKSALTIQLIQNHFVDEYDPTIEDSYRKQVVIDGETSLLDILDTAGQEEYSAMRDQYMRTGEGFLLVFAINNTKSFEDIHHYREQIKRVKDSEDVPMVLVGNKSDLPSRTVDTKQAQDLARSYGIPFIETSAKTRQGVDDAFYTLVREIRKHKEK
Test: Biochemical functional assay: SOS1-mediated nucleotide exchange of GDP-loaded KRAS G12C, binding to GST-cRaf RBD, FRET readout
Details: 3 hrs pre-incubation with compound at 24° C., SOS1, GTPyS, inhibition of nucleotide exchange
Response field label: string, one of Fulfilled (IC50 strictly below 40 nM) or Not fulfilled.

Compound	Category
C=C(F)C(=O)N1CCN(c2nc(N3CC(N(C)C)C3)nc3cc(-c4c(Cl)c(C)cc5[nH]ncc45)c4ccoc4c23)C[C@@H]1CC#N [Compound B79]	Not fulfilled
C=CC(=O)N1CCN(c2ncnc3cc(-c4cccc(C)c4F)c4c(c23)OCCC4)C[C@@H]1CC#N [Compound A31]	Not fulfilled
C=C(F)C(=O)N1CCN(c2nc(N3CC(N(C)C)C3)nc3cc(-c4cccc5cccc(Cl)c45)c4c(c23)OCCC4)C[C@@H]1CC#N (single isomer, unassigned) [Compound B102]	Not fulfilled
C=CC(=O)N1CCN(c2ncnc3cc(-c4cccc5ccccc45)c4c(c23)OCCC4)C[C@@H]1CC#N [Compound A7]	Not fulfilled

# strict comparison: is reported IC50 < 40 nM? input = C=C(F)C(=O)N1CCN(c2nc(OCC3C[C@@H](OC)CN3C)nc3cc(-c4cccc5cccc(Cl)c45)c4c(c23)OCCC4)C[C@@H]1CC#N (single isomer, unassigned) [Compound B95] Fulfilled

Strictly below 40 nM in IC50? C=C(F)C(=O)N1CCN(c2nc(OC[C@@H]3CCCN3C)nc3cc(-c4cccc5c4CCC5)c4c(c23)OCCC4)C[C@@H]1CC#N [Compound B78] Fulfilled

###

Target: KRAS (aa 1-169) G12C, C51S, C80L, C118S (Homo sapiens (Human), UniProt P01116, C118S/C51S/C80L/G12C)
Experiment: Biochemical functional assay: SOS1-mediated nucleotide exchange of GDP-loaded KRAS G12C, binding to GST-cRaf RBD, FRET readout
Conditions: 3 hrs pre-incubation with compound at 24° C., SOS1, GTPyS, inhibition of nucleotide exchange
pIC50: −log10 of the molar value.
Classification by pIC50 | ranges: lower = under 7, middle = from 7 up to 8, upper = 8 and over

Compound	Category
C=C(F)C(=O)N1CCN(c2nc(N3CC(CC#N)(N(C)C)C3)nc3cc(-c4cccc5cccc(Cl)c45)c4c(c23)OCCC4)C[C@@H]1CC#N [Compound B90]	middle

Class for C=CC(=O)N1CCN(c2nc(N(C)CCN(C)C)nc3cc(-c4cccc5cccc(Cl)c45)c4c(c23)OCCC4)CC1 ? lower

Please classify: C=C(F)C(=O)N1CCN(c2nc(N3CC(N(C)C)C3)nc3cc(-c4cccc5cccc(Cl)c45)c4c(c23)OCCC4)C[C@@H]1CC#N [Compound B100] middle

Pick a category. Item: C=C(F)C(=O)N1CCN(c2nc(OC[C@H]3C[C@@H](OC)CN3C)nc3cc(-c4cccc5cccc(Cl)c45)c4c(c23)OCCC4)C[C@@H]1CC#N (single isomer, unassigned) [Compound B107] upper

Given C=C(F)C(=O)N1CCN(c2nc(OC3CCCN(C)C3)nc3cc(-c4cccc5cccc(Cl)c45)c4c(c23)OCCC4)C[C@@H]1CC#N (stereo partly drawn) , name the class its pIC50 places it in. lower

Bin this entry: C=CC(=O)N1CCN(c2ncnc3cc(-c4cc(C(F)(F)F)cc5[nH]ncc45)c4c(c23)OCCC4)C[C@@H]1CC#N middle

# credit: patent US20240166660A1
